- SUBJECT_OF_TEST: HLA-B*15:17
- ASSAY_EXPLANATION: IEDB peptide-MHC binding, purified MHC/direct/fluorescence; filed as Kd, often an IC50 or EC50 that approximates it; bounds were set here for any values at or beyond the usual limits of such assays
- TEST_PARAMETERS: source organism: Mammarenavirus lassaense
RESULT_TYPE: pKd
In textbook form, pKd equals minus log to base ten of the concentration in mol/L.

# input Give its pKd value. Item: KSSLNISGY
# output 8.80

* * *

- SUBJECT_OF_TEST: HLA-B*58:01
- ASSAY_EXPLANATION: IEDB peptide-MHC binding, purified MHC/direct/fluorescence; filed as Kd, often an IC50 or EC50 that approximates it; bounds were set here for any values at or beyond the usual limits of such assays
- TEST_PARAMETERS: source organism: Influenza A virus (A/Istanbul/CTF/10/2004(H3N2))
RESULT_TYPE: pKd
In textbook form, pKd equals minus log to base ten of the concentration in mol/L.

# input Give pKd (HLA-B*58:01) of the following sequence: RLVDSIVSW
# output 7.31
